Measured Avg. MFI 200 of individual entries
subject.of.test: HLA B*07 (Homo sapiens, UniProt P01889)
run.description: T2B7 binding assay (stabilization of HLA B*07 on TAP-deficient T2 cells, FACS)
condition.set: mean fluorescence index, peptide at 200 ug/ml
observed.property: Avg. MFI 200

# construct.sequence, numeric.readout
records = [
    ("PEDIDCWCTK [WNVB7 3399]", 990.3),
    ("RPQRHDEKTL [WNB7 019]", 1644.6),
    ("RPAADGRTVM [WNB7 023]", 979.1),
]
